The reported measurements were obtained from ChEMBL document CHEMBL1201862.

System: T47D
Experiment: NCI tumour cell line growth inhibition, 48 h
Calls of active or inactive are those of the source. Rule as the data show it: active = GI50 up to about 1.1 µM and inactive = higher.
property_name: GI50

Problem: Give T47D GI50 for CCc1cc(Cc2cc(CC)c(NC(=O)C(=O)CC(=O)c3sc(-c4cccnc4)nc3C)c(CC)c2)cc(CC)c1NC(=O)C(=O)CC(=O)c1sc(-c2cccnc2)nc1C
Solution: > 100 µM (inactive)

----------
System: EKVX
Assay: NCI tumour cell line growth inhibition, 48 h
Active and inactive are the calls of the source. Cut-off read from the data, not from the text of the source: active = GI50 up to about 1.1 µM and inactive = higher.
Answer with one of the outcomes given here: active, inactive

Solved cases (5 shown):
* CCOC(=O)c1c(N2CCCC2)[nH]c(=O)c(C(c2c(O)c(C(=O)OCC)c(N3CCCC3)[nH]c2=O)C(C)C)c1O | inactive
* COP(=O)(CC(=O)C1OC(C)(C)OC1C(O)COCc1ccccc1)OC (stereo unspecified) | inactive
* COc1cc2c(c(OC)c1OC)-c1ccc(SC)c(=O)cc1C(CC(=O)Oc1cccc([N+](=O)[O-])c1)C2 (stereo unspecified) | inactive
* CC(C)(C)[Si](C)(C)O[C@@H](C(=O)OC1C=CCCC1)[C@@H](NC(=O)c1ccccc1)c1ccccc1 (stereo partly specified) | inactive
* Cc1cc2c(cc1C)[n+]([O-])c(C(=O)N1CCN(c3ccc([N+](=O)[O-])cc3)CC1)c(C)[n+]2[O-] | inactive

Problem: Please state the recorded outcome for this compound: Cn1c(=O)nc2n(-c3cc(Cl)ccc3Cl)c3ccccc3nc-2c1=O
Solution: inactive

Problem: Please state the recorded outcome for this compound: CCC1C2C=CC(CC2)N1S(=O)(=O)c1ccc(C)cc1 (stereo unspecified)
Solution: inactive

Problem: Please state the recorded outcome for this compound: CC(=O)N(C)c1ccc2ncccc2c1[N+](=O)[O-]
Solution: inactive

Problem: Please state the recorded outcome for this compound: COc1ccc(-c2oc3ccccc3c(=O)c2O)cc1OC [3-HYDROXY-3',4'-DIMETHOXYFLAVONE]
Solution: inactive

Problem: Please state the recorded outcome for this compound: C/C(=N\NC(=S)Nc1ccc(C(=O)O)cc1)c1ccccn1
Solution: inactive
